- procedure_text: 1- to 5-day PK with topical ocular Compound-I formulations (Example 5)
- Type: in vivo, Dutch Belted rabbits
- condition_details: Dutch Belted, rabbit, cornea, topical, 30 μL (bilateral), Group 5: one dose day 1; 4 hr post-dose; read-out: Average Concentration Cornea
- Description: On day 1, Groups 1, 2, 4-6, 8, 10, 11, 13, 15, and 17 received one dose (q.d.) for either one (1) or four (4) days. Peripheral retina and peripheral choroid samples were assayed only for Groups 1-8, 12, 14, and 16 per study protocol.
endpoint: concentration at 4 h
Mention the unit after the number when you answer.

Query :: Bench note: what concentration at 4 h did Cl.NC(=O)c1c(OCc2c(F)cc(Br)cc2F)nsc1NC(=O)NCCCCN1CCCC1 [Compound-I, hydrochloride] show?
Result :: 14.1 µM
